Test system: CAL-27 (Oral Cavity Carcinoma)
measurementNotes: combination Emax (second highest fraction inhibited in the dose matrix, 72 h); higher = more inhibition; extreme values may be limits of the assay
We use 0.5 as the dividing line for combination Emax: on or above the line is t, below is f.

Prompt: Form field: combination Emax at least 0.5? Entry: COc1cccc(OCCCN)c1-c1cc(Nc2cnc(C#N)cn2)n[nH]1 [Prexasertib] + Cc1cc2ncnn2cc1Nc1ncc2c(n1)n(C1CCOCC1)c(=O)n2C [AZD7648] (first compound max 1 µM, 7x7, partner max 10 µM)
Response: f

Prompt: Next molecule: Cc1cc2ncnn2cc1Nc1ncc2c(n1)n(C1CCOCC1)c(=O)n2C [AZD7648] + CCN(CCO)CCCOc1ccc2c(Nc3cc(CC(=O)Nc4cccc(F)c4)[nH]n3)ncnc2c1 [AZD2811] (first compound max 10 µM, 7x7, partner max 1 µM)
Response: t

Prompt: # iterate: CC1(C)CCC(CN2CCN(c3ccc(C(=O)NS(=O)(=O)c4ccc(NCC5CCOCC5)c([N+](=O)[O-])c4)c(Oc4cnc5[nH]ccc5c4)c3)CC2)=C(c2ccc(Cl)cc2)C1 [Venetoclax] + C[C@@H](Nc1cc(F)cc(F)c1)c1cc(C(=O)N(C)C)cc2c(=O)cc(N3CCOCC3)oc12 [AZD8186] (first compound max 1 µM, 7x7, partner max 3 µM)
Response: f

Prompt: Please answer likewise for Cc1c2c(nn1C)CSCc1cc(n(C)n1)CSc1cc(c3ccccc3c1)OCCCc1c(C(=O)O)n(C)c3c-2c(Cl)ccc13 [AZD5991] + C=CCn1c(=O)c2cnc(Nc3ccc(N4CCN(C)CC4)cc3)nc2n1-c1cccc(C(C)(C)O)n1 [AZD1775] (first compound max 1 µM, partner max 1 µM)
Response: t

Prompt: # iterate: C=CCn1c(=O)c2cnc(Nc3ccc(N4CCN(C)CC4)cc3)nc2n1-c1cccc(C(C)(C)O)n1 [AZD1775] + O=C(c1cc(Cc2n[nH]c(=O)c3ccccc23)ccc1F)N1CCN(C(=O)C2CC2)CC1 [Olaparib] (first compound max 1 µM, partner max 10 µM)
Response: t

Prompt: What do you get for C=CCn1c(=O)c2cnc(Nc3ccc(N4CCN(C)CC4)cc3)nc2n1-c1cccc(C(C)(C)O)n1 [AZD1775] + C[C@@H]1COCCN1C2=NC(=NC(=C2)C3(CC3)[S@](=N)(=O)C)C4=C5C=CNC5=NC=C4 [AZD6738] (first compound max 1 µM, partner max 10 µM) ?
Response: t

Prompt: Also CCN(CCO)CCCOc1ccc2c(Nc3cc(CC(=O)Nc4cccc(F)c4)[nH]n3)ncnc2c1 [AZD2811] + C[C@@H]1COCCN1C2=NC(=NC(=C2)C3(CC3)[S@](=N)(=O)C)C4=C5C=CNC5=NC=C4 [AZD6738] (first compound max 1 µM, 7x7, partner max 10 µM) , if possible.
Response: t

Prompt: Similarly, Cc1c2c(nn1C)CSCc1cc(n(C)n1)CSc1cc(c3ccccc3c1)OCCCc1c(C(=O)O)n(C)c3c-2c(Cl)ccc13 [AZD5991] + C1CN(CCC1(C(=O)N[C@@H](CCO)C2=CC=C(C=C2)Cl)N)C3=NC=NC4=C3C=CN4 [Capivasertib] (first compound max 1 µM, 7x7, partner max 3 µM) ?
Response: t

Prompt: Try C[C@@H](c1ccc2nccn2c1)n1nnc2ncc(-c3cnn(C)c3)nc21 [Savolitinib] + CN(CC[C@H](CSC1=CC=CC=C1)NC2=C(C=C(C=C2)S(=O)(=O)NC(=O)C3=CC=C(C=C3)N4CCC(CC4)[C@H](C5=CC=CC=C5C6=CC=C(C=C6)Cl)O)S(=O)(=O)C(F)(F)F)CCO [AZD4320] (first compound max 1 µM, 7x7, partner max 1 µM) next.
Response: f

Prompt: Likewise for COc1cccc(OCCCN)c1-c1cc(Nc2cnc(C#N)cn2)n[nH]1 [Prexasertib] + CN(C)CCCOc1ccc(-c2ccc3ncc4c(c3c2)n(C2CCOCC2)c(=O)n4C)cn1 [AZD0156] (first compound max 1 µM, 7x7, partner max 1 µM) ?
Response: f

Prompt: Again, but for CC1(C)CCC(CN2CCN(c3ccc(C(=O)NS(=O)(=O)c4ccc(NCC5CCOCC5)c([N+](=O)[O-])c4)c(Oc4cnc5[nH]ccc5c4)c3)CC2)=C(c2ccc(Cl)cc2)C1 [Venetoclax] + C=CCn1c(=O)c2cnc(Nc3ccc(N4CCN(C)CC4)cc3)nc2n1-c1cccc(C(C)(C)O)n1 [AZD1775] (first compound max 1 µM, partner max 1 µM)
Response: f

Prompt: Same question for CC1(C)CCC(CN2CCN(c3ccc(C(=O)NS(=O)(=O)c4ccc(NCC5CCOCC5)c([N+](=O)[O-])c4)c(Oc4cnc5[nH]ccc5c4)c3)CC2)=C(c2ccc(Cl)cc2)C1 [Venetoclax] + CCN(CCO)CCCOc1ccc2c(Nc3cc(CC(=O)Nc4cccc(F)c4)[nH]n3)ncnc2c1 [AZD2811] (first compound max 1 µM, 7x7, partner max 1 µM) please.
Response: f

Prompt: Another molecule: Cn1cnc2c(F)c(Nc3ccc(Br)cc3Cl)c(C(=O)NOCCO)cc21 [Selumetinib] + CCN(CCO)CCCOc1ccc2c(Nc3cc(CC(=O)Nc4cccc(F)c4)[nH]n3)ncnc2c1 [AZD2811] (first compound max 10 µM, 7x7, partner max 1 µM)
Response: t

====

Test system: GCT (Other Solid Carcinomas)
measurementNotes: combination Emax (second highest fraction inhibited in the dose matrix, 72 h); higher = more inhibition; extreme values may be limits of the assay
Kindly state combination Emax for each of the entries shown.
I'd appreciate a reply containing only the number, no unit.

Prompt: Value lookup for combination Emax; key = NC1(C(=O)N[C@@H](CCO)c2ccc(Cl)cc2)CCN(c2ncnc3[nH]ccc23)CC1 [Capivasertib] + Cn1cnc2c(F)c(Nc3ccc(Br)cc3Cl)c(C(=O)NOCCO)cc21 [Selumetinib] (first compound max 10 µM, 7x7, partner max 10 µM)
Response: 0.753

Prompt: Let us now turn to CN(CCO)CC[C@H](CSc1ccccc1)Nc1ccc(S(=O)(=O)NC(=O)c2ccc(N3CCC([C@@H](O)c4ccccc4-c4ccc(Cl)cc4)CC3)cc2)cc1S(=O)(=O)C(F)(F)F [AZD4320] + Cn1cnc2c(F)c(Nc3ccc(Br)cc3Cl)c(C(=O)NOCCO)cc21 [Selumetinib] (first compound max 1 µM, 7x7, partner max 3 µM)
Response: 0.352

Prompt: Another: NC1(C(=O)N[C@@H](CCO)c2ccc(Cl)cc2)CCN(c2ncnc3[nH]ccc23)CC1 [Capivasertib] + CCN(CCO)CCCOc1ccc2c(Nc3cc(CC(=O)Nc4cccc(F)c4)[nH]n3)ncnc2c1 [AZD2811] (first compound max 10 µM, 7x7, partner max 1 µM)
Response: 0.636

Prompt: Moving on to the next compound: Cn1cnc2c(F)c(Nc3ccc(Br)cc3Cl)c(C(=O)NOCCO)cc21 [Selumetinib] + CCN(CCO)CCCOc1ccc2c(Nc3cc(CC(=O)Nc4cccc(F)c4)[nH]n3)ncnc2c1 [AZD2811] (first compound max 10 µM, 7x7, partner max 1 µM)
Response: 0.384

====

Tested on: JVM-2 (B-Cell Non-Hodgkin's Lymphoma)
measurementNotes: combination Emax (second highest fraction inhibited in the dose matrix, 72 h); higher = more inhibition; extreme values may be limits of the assay
propertyMeasured: combination Emax
// print number alone

Prompt: Look up combination Emax: CN(C)CCCOc1ccc(-c2ccc3ncc4c(c3c2)n(C2CCOCC2)c(=O)n4C)cn1 [AZD0156] + O=C(c1cc(Cc2n[nH]c(=O)c3ccccc23)ccc1F)N1CCN(C(=O)C2CC2)CC1 [Olaparib] (first compound max 3 µM, partner max 3 µM)
Response: 0.533

Prompt: Entry to check: CN(CCO)CC[C@H](CSc1ccccc1)Nc1ccc(S(=O)(=O)NC(=O)c2ccc(N3CCC([C@@H](O)c4ccccc4-c4ccc(Cl)cc4)CC3)cc2)cc1S(=O)(=O)C(F)(F)F [AZD4320] + C=CCn1c(=O)c2cnc(Nc3ccc(N4CCN(C)CC4)cc3)nc2n1-c1cccc(C(C)(C)O)n1 [AZD1775] (first compound max 1 µM, partner max 1 µM)
Response: 0.981

Prompt: Same for CCN(CCO)CCCOc1ccc2c(Nc3cc(CC(=O)Nc4cccc(F)c4)[nH]n3)ncnc2c1 [AZD2811] + O=C(c1cc(Cc2n[nH]c(=O)c3ccccc23)ccc1F)N1CCN(C(=O)C2CC2)CC1 [Olaparib] (first compound max 1 µM, 7x7, partner max 10 µM)
Response: 0.738

Prompt: Repeat with NC1(C(=O)N[C@@H](CCO)c2ccc(Cl)cc2)CCN(c2ncnc3[nH]ccc23)CC1 [Capivasertib] + C[C@@H]1COCCN1C2=NC(=NC(=C2)C3(CC3)[S@](=N)(=O)C)C4=C5C=CNC5=NC=C4 [AZD6738] (first compound max 10 µM, 7x7, partner max 10 µM)
Response: 0.864

Prompt: What do we get for Cc1c2c(nn1C)CSCc1cc(n(C)n1)CSc1cc(c3ccccc3c1)OCCCc1c(C(=O)O)n(C)c3c-2c(Cl)ccc13 [AZD5991] + Cn1cnc2c(F)c(Nc3ccc(Br)cc3Cl)c(C(=O)NOCCO)cc21 [Selumetinib] (first compound max 1 µM, 7x7, partner max 3 µM) ?
Response: 0.646

Prompt: Also CN(CCO)CC[C@H](CSc1ccccc1)Nc1ccc(S(=O)(=O)NC(=O)c2ccc(N3CCC([C@@H](O)c4ccccc4-c4ccc(Cl)cc4)CC3)cc2)cc1S(=O)(=O)C(F)(F)F [AZD4320] + C[C@@H](Nc1cc(F)cc(F)c1)c1cc(C(=O)N(C)C)cc2c(=O)cc(N3CCOCC3)oc12 [AZD8186] (first compound max 1 µM, 7x7, partner max 3 µM) ?
Response: 0.892

Prompt: And then Cc1cc2ncnn2cc1Nc1ncc2c(n1)n(C1CCOCC1)c(=O)n2C [AZD7648] + C=CCn1c(=O)c2cnc(Nc3ccc(N4CCN(C)CC4)cc3)nc2n1-c1cccc(C(C)(C)O)n1 [AZD1775] (first compound max 10 µM, partner max 1 µM) , what is it?
Response: 0.899

Prompt: Record: CCN(CCO)CCCOc1ccc2c(Nc3cc(CC(=O)Nc4cccc(F)c4)[nH]n3)ncnc2c1 [AZD2811] + C=CCn1c(=O)c2cnc(Nc3ccc(N4CCN(C)CC4)cc3)nc2n1-c1cccc(C(C)(C)O)n1 [AZD1775] (first compound max 1 µM, partner max 1 µM)
Response: 0.91

Prompt: Also COc1cc2c(cc1OCCCCCOc1cc3c(cc1OC)C(=O)N1C=C(C)C[C@H]1C=N3)N=C[C@@H]1CC(C)=CN1C2=O [SG3199] + O=C(c1cc(Cc2n[nH]c(=O)c3ccccc23)ccc1F)N1CCN(C(=O)C2CC2)CC1 [Olaparib] (first compound max 0.001 µM, 7x7, partner max 10 µM) , if possible.
Response: 0.466

Prompt: Moving on to the next compound: Cn1cnc2c(F)c(Nc3ccc(Br)cc3Cl)c(C(=O)NOCCO)cc21 [Selumetinib] + C=CCn1c(=O)c2cnc(Nc3ccc(N4CCN(C)CC4)cc3)nc2n1-c1cccc(C(C)(C)O)n1 [AZD1775] (first compound max 10 µM, partner max 1 µM)
Response: 0.906

Prompt: Field entry: NC1(C(=O)N[C@@H](CCO)c2ccc(Cl)cc2)CCN(c2ncnc3[nH]ccc23)CC1 [Capivasertib] + CC(C)n1c(=O)n(C)c2cnc3cc(F)c(-c4ccc(OCCCN5CCCCC5)nc4)cc3c21 [AZD1390] (first compound max 10 µM, 7x7, partner max 0.3 µM)
Response: 0.707
